conditions: in cyclohexanone, 328.15 K
readout.kind: solubility (mole fraction)
Give bare numbers.

Endpoint output: solubility (mole fraction) of `Cc1ccc[n+](CCCC[n+]2cccc(C)c2)c1.F[P-](F)(F)(F)(F)F.F[P-](F)(F)(F)(F)F` . Value?
0.0018

###

details: in water, 303.15 K
readout.kind: solubility (mole fraction)

Endpoint output: solubility (mole fraction) of `Cc1ccc[n+](CCCC[n+]2cccc(C)c2)c1.F[P-](F)(F)(F)(F)F.F[P-](F)(F)(F)(F)F` . Value?
8e-06

###

conditions: in 2-butanone, 293.15 K
readout.kind: solubility (mole fraction)
Give bare numbers.

Endpoint output: solubility (mole fraction) of `Cc1ccc[n+](CCCC[n+]2cccc(C)c2)c1.F[P-](F)(F)(F)(F)F.F[P-](F)(F)(F)(F)F` . Value?
0.00328

###

details: in acetophenone, 318.15 K
readout.kind: solubility (mole fraction)
Numbers only.

Endpoint output: solubility (mole fraction) of `Cc1ccc[n+](CCCC[n+]2cccc(C)c2)c1.F[P-](F)(F)(F)(F)F.F[P-](F)(F)(F)(F)F` . Value?
0.0024

###

conditions: in cyclohexanone, 308.15 K
readout.kind: solubility (mole fraction)
One number for each entry.

Endpoint output: solubility (mole fraction) of `Cc1ccc[n+](CCCC[n+]2cccc(C)c2)c1.F[P-](F)(F)(F)(F)F.F[P-](F)(F)(F)(F)F` . Value?
0.000967

###

conditions: in acetophenone, 333.15 K
readout.kind: solubility (mole fraction)
Answers are plain numbers.

Endpoint output: solubility (mole fraction) of `Cc1ccc[n+](CCCC[n+]2cccc(C)c2)c1.F[P-](F)(F)(F)(F)F.F[P-](F)(F)(F)(F)F` . Value?
0.00556

###

conditions: in acetophenone, 308.15 K
readout.kind: solubility (mole fraction)
Give bare numbers.

Endpoint output: solubility (mole fraction) of `Cc1ccc[n+](CCCC[n+]2cccc(C)c2)c1.F[P-](F)(F)(F)(F)F.F[P-](F)(F)(F)(F)F` . Value?
0.00138

###

settings: in cyclohexanone, 303.15 K
readout.kind: solubility (mole fraction)
Numbers only.

Endpoint output: solubility (mole fraction) of `Cc1ccc[n+](CCCC[n+]2cccc(C)c2)c1.F[P-](F)(F)(F)(F)F.F[P-](F)(F)(F)(F)F` . Value?
0.000746

###

conditions: in water, 318.15 K
readout.kind: solubility (mole fraction)

Endpoint output: solubility (mole fraction) of `Cc1ccc[n+](CCCC[n+]2cccc(C)c2)c1.F[P-](F)(F)(F)(F)F.F[P-](F)(F)(F)(F)F` . Value?
3.9e-05

###

settings: in water, 313.15 K
readout.kind: solubility (mole fraction)
Give bare numbers.

Endpoint output: solubility (mole fraction) of `Cc1ccc[n+](CCCC[n+]2cccc(C)c2)c1.F[P-](F)(F)(F)(F)F.F[P-](F)(F)(F)(F)F` . Value?
2.4e-05

###

conditions: in acetophenone, 303.15 K
readout.kind: solubility (mole fraction)
Numbers only.

Endpoint output: solubility (mole fraction) of `Cc1ccc[n+](CCCC[n+]2cccc(C)c2)c1.F[P-](F)(F)(F)(F)F.F[P-](F)(F)(F)(F)F` . Value?
0.00103

###

conditions: in cyclohexanone, 298.15 K
readout.kind: solubility (mole fraction)
Answers are plain numbers.

Endpoint output: solubility (mole fraction) of `Cc1ccc[n+](CCCC[n+]2cccc(C)c2)c1.F[P-](F)(F)(F)(F)F.F[P-](F)(F)(F)(F)F` . Value?
0.00051

###

details: in water, 298.15 K
readout.kind: solubility (mole fraction)
Give bare numbers.

Endpoint output: solubility (mole fraction) of `Cc1ccc[n+](CCCC[n+]2cccc(C)c2)c1.F[P-](F)(F)(F)(F)F.F[P-](F)(F)(F)(F)F` . Value?
5e-06

###

conditions: in 2-butanone, 298.15 K
readout.kind: solubility (mole fraction)
Give bare numbers.

Endpoint output: solubility (mole fraction) of `Cc1ccc[n+](CCCC[n+]2cccc(C)c2)c1.F[P-](F)(F)(F)(F)F.F[P-](F)(F)(F)(F)F` . Value?
0.00379

###

conditions: in water, 328.15 K
readout.kind: solubility (mole fraction)
Answers are plain numbers.

Endpoint output: solubility (mole fraction) of `Cc1ccc[n+](CCCC[n+]2cccc(C)c2)c1.F[P-](F)(F)(F)(F)F.F[P-](F)(F)(F)(F)F` . Value?
9.8e-05

###

settings: in cyclohexanone, 313.15 K
readout.kind: solubility (mole fraction)
Answers are plain numbers.

Endpoint output: solubility (mole fraction) of `Cc1ccc[n+](CCCC[n+]2cccc(C)c2)c1.F[P-](F)(F)(F)(F)F.F[P-](F)(F)(F)(F)F` . Value?
0.00121

###

settings: in water, 323.15 K
readout.kind: solubility (mole fraction)

Endpoint output: solubility (mole fraction) of `Cc1ccc[n+](CCCC[n+]2cccc(C)c2)c1.F[P-](F)(F)(F)(F)F.F[P-](F)(F)(F)(F)F` . Value?
6.3e-05

###

details: in 2-butanone, 333.15 K
readout.kind: solubility (mole fraction)
Numbers only.

Endpoint output: solubility (mole fraction) of `Cc1ccc[n+](CCCC[n+]2cccc(C)c2)c1.F[P-](F)(F)(F)(F)F.F[P-](F)(F)(F)(F)F` . Value?
0.00856

###

conditions: in acetylacetone, 333.15 K
readout.kind: solubility (mole fraction)
Answers are plain numbers.

Endpoint output: solubility (mole fraction) of `Cc1ccc[n+](CCCC[n+]2cccc(C)c2)c1.F[P-](F)(F)(F)(F)F.F[P-](F)(F)(F)(F)F` . Value?
0.0136

###

settings: in water, 288.15 K
readout.kind: solubility (mole fraction)
One number for each entry.

Endpoint output: solubility (mole fraction) of `Cc1ccc[n+](CCCC[n+]2cccc(C)c2)c1.F[P-](F)(F)(F)(F)F.F[P-](F)(F)(F)(F)F` . Value?
2e-06

###

settings: in acetylacetone, 303.15 K
readout.kind: solubility (mole fraction)
Answers are plain numbers.

Endpoint output: solubility (mole fraction) of `Cc1ccc[n+](CCCC[n+]2cccc(C)c2)c1.F[P-](F)(F)(F)(F)F.F[P-](F)(F)(F)(F)F` . Value?
0.00282

###

details: in cyclohexanone, 323.15 K
readout.kind: solubility (mole fraction)
Answers are plain numbers.

Endpoint output: solubility (mole fraction) of `Cc1ccc[n+](CCCC[n+]2cccc(C)c2)c1.F[P-](F)(F)(F)(F)F.F[P-](F)(F)(F)(F)F` . Value?
0.00164

###

settings: in 2-butanone, 328.15 K
readout.kind: solubility (mole fraction)
Answers are plain numbers.

Endpoint output: solubility (mole fraction) of `Cc1ccc[n+](CCCC[n+]2cccc(C)c2)c1.F[P-](F)(F)(F)(F)F.F[P-](F)(F)(F)(F)F` . Value?
0.00771

These measurements were taken from BigSolDB 2.1.
